target: DPP2 (Homo sapiens (Human)); assay: DPP2 enzyme inhibition, IC50 measurement (Lys-Ala-pNA release); assay type: biochemical; conditions: Table 1; mean ± SD (n = 3)
Exercise: for every item that follows, state its recorded IC50.

The cases that follow already have their IC50 on record.
CCCCOC12CC3CC(CC(NCC(=O)N4CCC[C@H]4C#N)(C3)C1)C2 | > 5 µM
N#C[C@@H]1[C@@H]2C[C@@H]2CN1C(=O)CNC12CC3CC(C1)CC(OCc1ccc(F)cc1F)(C3)C2 | > 5 µM
N#C[C@@H]1C[C@H](N=[N+]=[N-])CN1C(=O)CNC12CC3CC(CC(O)(C3)C1)C2 | > 5 µM
C=C1C[C@@H](C#N)N(C(=O)CNC23CC4CC(C2)CC(OCc2ccc(F)cc2F)(C4)C3)C1 | 1.1 µM
N#C[C@@H]1C[C@H](N=[N+]=[N-])CN1C(=O)CNC12CC3CC(C1)CC(OCc1ccccc1)(C3)C2 | > 5 µM

// below: IC50 requested for another compound
Q: // Input: CCCCOC12CC3CC(CC(NCC(=O)N4C[C@H]5C[C@H]5[C@H]4C#N)(C3)C1)C2 . Output its IC50 only.
Ans: > 5 µM

====

molecular target: DPP9 (Homo sapiens (Human)); experiment: DPP9 enzyme inhibition, IC50 measurement (Ala-Pro-pNA release); type: biochemical; conditions: Table 3; selectivity index, DPP8 IC50 over DPP9 IC50
assay_metric: SI DPP9/8
One number for each entry.

Reference set (5 entries):
O=C(NC(c1ccccc1)c1ccccc1)OC12CC3CC(CC(NCC(=O)N4Cc5ccccc5C4)(C3)C1)C2 | 12.2
O=C(NC(c1ccc(F)cc1)c1ccc(F)cc1)OC12CC3CC(CC(NCC(=O)N4Cc5ccccc5C4)(C3)C1)C2 | 14.0
Cl.O=C(NCc1ccccc1)NC12CC3CC(CC(NCC(=O)N4Cc5ccccc5C4)(C3)C1)C2 | 13.4
COC(=O)[C@H](C)NC(=O)OC12CC3CC(CC(NCC(=O)N4Cc5ccc(F)cc5C4)(C3)C1)C2 | 13.8
O=C(NCc1ccccc1)OC12CC3CC(CC(NCC(=O)N4Cc5ccccc5C4)(C3)C1)C2 | 15.6

Okay, here is my list. What is SI DPP9/8 for each of these?
1. CC12CC3CC(C)(C1)CC(NCC(=O)N1Cc4ccc(F)cc4C1)(C3)C2
2. N#Cc1ccc(CNC23CC4CC(CC(NCC(=O)N5Cc6ccccc6C5)(C4)C2)C3)cc1

Ans:
[10.8, 13.3]

====

target: DPP9 (Homo sapiens (Human)); assay: DPP9 enzyme inhibition, IC50 measurement (Ala-Pro-pNA release); type: biochemical; settings: Table 1; selectivity index, DPP8 IC50 over DPP9 IC50
assay_metric: SI DPP9/8
Answers are plain numbers.

N#C[C@@H]1[C@@H]2C[C@@H]2CN1C(=O)CNC12CC3CC(C1)CC(OCc1ccc(F)cc1F)(C3)C2 | 3.4
N#C[C@@H]1C[C@H](N=[N+]=[N-])CN1C(=O)CNC12CC3CC(CC(O)(C3)C1)C2 | 9.4
C=C1C[C@@H](C#N)N(C(=O)CNC23CC4CC(C2)CC(OCc2ccccc2)(C4)C3)C1 | 2.9
C=C1C[C@@H](C#N)N(C(=O)CNC23CC4CC(CC(O)(C4)C2)C3)C1 | 3.9
N#C[C@@H]1C[C@H](N=[N+]=[N-])CN1C(=O)CNC12CC3CC(C1)CC(OCc1ccccc1)(C3)C2 | 6.0

Shift focus to the following entry.
Q: Give the value of SI DPP9/8 reported for the following: N#C[C@@H]1C[C@H](N=[N+]=[N-])CN1C(=O)CNC12CC3CC(C1)CC(OCc1ccc(F)cc1F)(C3)C2
Ans: 6.8

====

target: DPP9 (Homo sapiens (Human)); assay: DPP9 enzyme inhibition, IC50 measurement (Ala-Pro-pNA release); format: biochemical; conditions: Table 1; selectivity index DPP9/4
assay_metric: SI DPP9/4

Consider the following illustrative entries.
CCCCOC12CC3CC(CC(NCC(=O)N4CCC[C@H]4C#N)(C3)C1)C2 | 0.07
N#C[C@@H]1CCCN1C(=O)CNC12CC3CC(C1)CC(OCc1ccc(F)cc1F)(C3)C2 | 0.1
N#C[C@@H]1C[C@H](N=[N+]=[N-])CN1C(=O)CNC12CC3CC(C1)CC(OCc1ccc(F)cc1F)(C3)C2 | 3.3
N#C[C@@H]1C[C@H](N=[N+]=[N-])CN1C(=O)CNC12CC3CC(CC(O)(C3)C1)C2 | 2
CCCCOC12CC3CC(CC(NCC(=O)N4C[C@@H](N=[N+]=[N-])C[C@H]4C#N)(C3)C1)C2 | 3.8
N#C[C@@H]1[C@@H]2C[C@@H]2CN1C(=O)CNC12CC3CC(C1)CC(OCc1ccccc1)(C3)C2 | 0.15
N#C[C@@H]1[C@@H]2C[C@@H]2CN1C(=O)CNC12CC3CC(C1)CC(OCc1ccc(F)cc1F)(C3)C2 | 0.3
C=C1C[C@@H](C#N)N(C(=O)CNC23CC4CC(C2)CC(OCc2ccc(F)cc2F)(C4)C3)C1 | 3.1

Turning now to a further record.
Q: Quickly give me recorded SI DPP9/4 for N#C[C@@H]1C[C@H](N=[N+]=[N-])CN1C(=O)CNC12CC3CC(C1)CC(OCc1ccccc1)(C3)C2
Ans: 1.7

====

molecular target: DPP8 (Homo sapiens (Human)); test: DPP8 enzyme inhibition, IC50 measurement (Ala-Pro-pNA release); type: biochemical; details: Table 3; mean ± SD (n = 3); read-out: DPP8 IC50 ± SD
Sequence (Q6V1X1 whole entry): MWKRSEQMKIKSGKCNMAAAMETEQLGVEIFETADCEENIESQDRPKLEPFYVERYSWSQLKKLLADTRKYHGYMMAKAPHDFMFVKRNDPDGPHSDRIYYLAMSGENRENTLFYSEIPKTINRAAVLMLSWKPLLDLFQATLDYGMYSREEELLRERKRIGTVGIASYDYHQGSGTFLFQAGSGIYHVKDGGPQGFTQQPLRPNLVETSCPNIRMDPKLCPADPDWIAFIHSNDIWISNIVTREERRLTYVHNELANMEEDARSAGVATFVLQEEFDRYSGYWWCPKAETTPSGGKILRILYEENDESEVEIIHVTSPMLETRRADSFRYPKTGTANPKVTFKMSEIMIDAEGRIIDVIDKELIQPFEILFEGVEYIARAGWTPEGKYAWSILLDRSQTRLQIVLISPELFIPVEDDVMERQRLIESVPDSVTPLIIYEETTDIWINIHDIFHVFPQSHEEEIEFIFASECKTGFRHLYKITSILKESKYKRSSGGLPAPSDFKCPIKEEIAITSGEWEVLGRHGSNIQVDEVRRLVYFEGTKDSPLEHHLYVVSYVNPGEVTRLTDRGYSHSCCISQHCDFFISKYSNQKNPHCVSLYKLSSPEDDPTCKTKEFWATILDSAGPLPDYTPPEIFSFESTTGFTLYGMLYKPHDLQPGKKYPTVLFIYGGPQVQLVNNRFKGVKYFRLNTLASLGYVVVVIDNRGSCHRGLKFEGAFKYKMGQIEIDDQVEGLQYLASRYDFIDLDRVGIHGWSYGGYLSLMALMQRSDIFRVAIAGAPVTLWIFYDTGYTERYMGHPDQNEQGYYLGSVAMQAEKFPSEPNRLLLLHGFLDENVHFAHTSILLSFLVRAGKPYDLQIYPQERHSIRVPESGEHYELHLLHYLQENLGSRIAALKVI
Would you mind telling me the reported pIC50 of each entry?
Give bare numbers, as −log10 of the molar value.

// solved cases for pIC50 follow
CC(C)(C)OC(=O)NC12CC3CC(CC(NCC(=O)N4Cc5ccc(F)cc5C4)(C3)C1)C2 | 6.08
CC(C)(C)OC(=O)NC12CC3CC(CC(NCC(=O)N4Cc5ccccc5C4)(C3)C1)C2 | 5.94
O=C(NCCCc1ccccc1)OC12CC3CC(CC(NCC(=O)N4Cc5ccccc5C4)(C3)C1)C2 | 6.00

Required: pIC50, one value per molecule below.
1. COC(=O)[C@H](CCSC)NC(=O)OC12CC3CC(CC(NCC(=O)N4Cc5ccc(F)cc5C4)(C3)C1)C2
2. O=C(NCc1ccncc1)OC12CC3CC(CC(NCC(=O)N4Cc5ccccc5C4)(C3)C1)C2
3. O=C(NC(c1ccc(F)cc1)c1ccc(F)cc1)OC12CC3CC(CC(NCC(=O)N4Cc5ccccc5C4)(C3)C1)C2
4. O=C(NCc1ccccc1)OC12CC3CC(CC(NCC(=O)N4Cc5ccccc5C4)(C3)C1)C2
5. COC(=O)[C@H](Cc1c[nH]c2ccccc12)NC(=O)OC12CC3CC(CC(NCC(=O)N4Cc5ccc(F)cc5C4)(C3)C1)C2
6. O=C(NCc1ccc(F)cc1F)OC12CC3CC(CC(NCC(=O)N4Cc5ccccc5C4)(C3)C1)C2
7. COC(=O)[C@H](C)NC(=O)OC12CC3CC(CC(NCC(=O)N4Cc5ccc(F)cc5C4)(C3)C1)C2

Ans:
1. 6.15
2. 5.95
3. 6.18
4. 5.94
5. 6.16
6. 6.08
7. 5.89

Hey, quick one: what's pIC50 for each of these?
1. CC(C)(C)NC(=O)NC12CC3CC(CC(NCC(=O)N4Cc5ccccc5C4)(C3)C1)C2.Cl [Compound 40, hydrochloride]
2. N#Cc1ccc(CNC23CC4CC(CC(NCC(=O)N5Cc6ccccc6C5)(C4)C2)C3)cc1

Ans:
1. 5.98
2. 6.17

====

target: PREP (Homo sapiens (Human)); assay: PREP enzyme inhibition, IC50 measurement (N-succinyl-Gly-Pro-AMC release); type: biochemical; conditions: Table 1; mean ± SD (n = 3)
Sequence (P48147 whole entry): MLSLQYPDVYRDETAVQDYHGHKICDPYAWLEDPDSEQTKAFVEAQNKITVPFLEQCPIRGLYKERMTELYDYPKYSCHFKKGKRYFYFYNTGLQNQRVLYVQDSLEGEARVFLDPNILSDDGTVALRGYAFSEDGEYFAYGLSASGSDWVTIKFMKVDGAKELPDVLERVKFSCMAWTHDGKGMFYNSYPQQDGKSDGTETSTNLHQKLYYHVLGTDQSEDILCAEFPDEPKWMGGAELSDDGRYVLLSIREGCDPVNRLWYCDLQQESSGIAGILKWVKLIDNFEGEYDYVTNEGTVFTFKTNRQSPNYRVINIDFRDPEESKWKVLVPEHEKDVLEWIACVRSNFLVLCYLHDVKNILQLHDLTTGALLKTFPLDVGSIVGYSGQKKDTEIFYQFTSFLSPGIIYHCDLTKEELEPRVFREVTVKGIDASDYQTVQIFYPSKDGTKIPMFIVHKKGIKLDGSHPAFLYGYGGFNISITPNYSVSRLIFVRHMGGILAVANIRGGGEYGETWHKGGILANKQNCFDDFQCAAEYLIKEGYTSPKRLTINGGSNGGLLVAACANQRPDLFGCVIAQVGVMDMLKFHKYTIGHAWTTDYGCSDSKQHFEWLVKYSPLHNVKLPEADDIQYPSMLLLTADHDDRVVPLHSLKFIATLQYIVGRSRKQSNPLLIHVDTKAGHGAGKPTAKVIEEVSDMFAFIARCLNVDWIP
assay_metric: IC50

Use these answered entries as a reference point.
C=C1C[C@@H](C#N)N(C(=O)CNC23CC4CC(C2)CC(OCc2ccc(F)cc2F)(C4)C3)C1 [Compound 5j] | > 10 µM
CCCCOC12CC3CC(CC(NCC(=O)N4C[C@@H](N=[N+]=[N-])C[C@H]4C#N)(C3)C1)C2 [Compound 5g] | > 10 µM
CCCCOC12CC3CC(CC(NCC(=O)N4C[C@H]5C[C@H]5[C@H]4C#N)(C3)C1)C2 [Compound 5o] | > 10 µM

Turning now to a further compound:
Q: Please report IC50 for the following compound: N#C[C@@H]1C[C@H](N=[N+]=[N-])CN1C(=O)CNC12CC3CC(CC(O)(C3)C1)C2 [Compound 5d]
Ans: > 10 µM

====

target: DPP9 (Homo sapiens (Human), UniProt Q86TI2); test: DPP9 enzyme inhibition, IC50 measurement (Ala-Pro-pNA release); assay type: biochemical; details: Table 3; selectivity index, DPP8 IC50 over DPP9 IC50
Sequence (Q86TI2 whole entry): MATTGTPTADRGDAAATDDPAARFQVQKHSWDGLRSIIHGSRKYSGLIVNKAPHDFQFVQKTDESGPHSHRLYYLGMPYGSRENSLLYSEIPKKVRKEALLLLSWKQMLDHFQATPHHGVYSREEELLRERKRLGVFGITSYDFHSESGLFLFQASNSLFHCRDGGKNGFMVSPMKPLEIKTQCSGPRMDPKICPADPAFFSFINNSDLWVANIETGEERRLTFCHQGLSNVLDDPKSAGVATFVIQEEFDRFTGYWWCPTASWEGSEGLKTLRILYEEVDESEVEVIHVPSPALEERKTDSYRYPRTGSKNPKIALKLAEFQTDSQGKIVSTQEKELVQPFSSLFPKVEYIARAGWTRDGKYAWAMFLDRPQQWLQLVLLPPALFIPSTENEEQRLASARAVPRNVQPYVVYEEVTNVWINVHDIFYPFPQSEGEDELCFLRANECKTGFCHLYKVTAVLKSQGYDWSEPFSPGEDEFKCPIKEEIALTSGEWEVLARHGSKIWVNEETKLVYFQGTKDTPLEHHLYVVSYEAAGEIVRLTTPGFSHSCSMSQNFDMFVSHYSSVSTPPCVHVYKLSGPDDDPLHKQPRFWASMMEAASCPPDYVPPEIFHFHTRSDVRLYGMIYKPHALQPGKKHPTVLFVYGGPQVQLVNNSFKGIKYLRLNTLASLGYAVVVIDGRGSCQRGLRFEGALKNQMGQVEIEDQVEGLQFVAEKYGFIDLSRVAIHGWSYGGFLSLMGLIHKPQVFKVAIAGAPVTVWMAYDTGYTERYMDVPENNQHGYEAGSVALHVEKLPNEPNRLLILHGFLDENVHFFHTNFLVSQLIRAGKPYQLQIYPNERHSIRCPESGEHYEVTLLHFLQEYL
assay_metric: SI DPP9/8
Give bare numbers.

Here is how some compounds turned out for SI DPP9/8.
COC(=O)[C@H](CCSC)NC(=O)OC12CC3CC(CC(NCC(=O)N4Cc5ccc(F)cc5C4)(C3)C1)C2 [Compound 61] | 15.3
O=C(NCCCc1ccccc1)OC12CC3CC(CC(NCC(=O)N4Cc5ccccc5C4)(C3)C1)C2 [Compound 38] | 10.1

For every listed record, write down its SI DPP9/8.
1. CC(C)(C)OC(=O)NC12CC3CC(CC(NCC(=O)N4Cc5cc(F)c(F)cc5C4)(C3)C1)C2 [Compound 49]
2. O=C(NCc1ccc(F)cc1F)OC12CC3CC(CC(NCC(=O)N4Cc5ccccc5C4)(C3)C1)C2 [Compound 39]
3. COc1ccc2c(c1)CN(C(=O)CNC13CC4CC(C1)CC(NC(=O)OC(C)(C)C)(C4)C3)C2 [Compound 59]
4. CC(C)(C)NC(=O)NC12CC3CC(CC(NCC(=O)N4Cc5ccccc5C4)(C3)C1)C2.Cl [Compound 40]
5. NC12CC3CC(C1)CC(NCC(=O)N1Cc4ccc(F)cc4C1)(C3)C2 [Compound 47, bis(2,2,2-trifluoroacetate)]

Ans:
1: 180.3; 2: 17.0; 3: 16.9; 4: 20.3; 5: 10.1
